Each recorded value in this set is attributed to ChEMBL document CHEMBL5724801.

test system: Fibroblast; assay: Multiplex assay against human fibroblast; format: toxicity, cell-based; conditions: 48 h, 10 µM, compound concentration 10 uM
Assay Metric: Population Hoechst High Intensity Objects (%)

Compound: O=C1CSC(=O)N1C(CCc1ccncc1)COc1ccc(-c2cccc([N+](=O)[O-])c2)cc1 (stereo unspecified)
Value Unit: %
Measured Number: 0
--
Compound: C=CC(=O)Nc1cc(Nc2nccc(-n3cc(CN(C)C)c(-c4ccccc4)n3)n2)c(OC)cc1N1CCOCC1
Value Unit: %
Measured Number: 0
--
Compound: O=C(NCc1cccc(O)c1)Nc1nc(-c2ccncc2)cs1
Value Unit: %
Measured Number: 0
--
Compound: Cc1cccc(F)c1C(=O)Nc1cnc(-c2cc3c(cc2Cl)OC(F)(F)O3)cn1
Value Unit: %
Measured Number: 0
--
Compound: CN(C)CCCn1cc(C2=C(c3c[nH]c4ccccc34)C(=O)NC2=O)c2ccccc21
Value Unit: %
Measured Number: 0
--
Compound: COC(=O)c1ccc2c(c1)NC(=O)/C2=C(\Nc1ccc(N(C)C(=O)CN2CCN(C)CC2)cc1)c1ccccc1
Value Unit: %
Measured Number: 0
--
Compound: CC(=O)Nc1cccc2c1c(Sc1ccc(Cl)cc1)c(C)n2CC(=O)O
Value Unit: %
Measured Number: 4
--
Compound: CC(C)CNc1nc(N2CCN(CC3CCCOC3)CC2)ncc1C(=O)NCc1ccccc1 (stereo unspecified)
Value Unit: %
Measured Number: 0
--
Compound: COCCNc1cc(NC(=O)N2CCCc3cc(CN4CCN(C)CC4=O)c(C=O)nc32)ncc1C#N
Value Unit: %
Measured Number: 0
--
Compound: CC(=O)NCC(=O)N1[C@@H]2CC[C@H]1c1ccc(Nc3ncc(C(F)(F)F)c(NC4CCC4)n3)cc12
Value Unit: %
Measured Number: 0
--
Compound: CN1C[C@H](C(=O)N[C@]2(C)O[C@@]3(O)[C@@H]4CCCN4C(=O)[C@H](Cc4ccccc4)N3C2=O)C[C@@H]2c3cccc4[nH]cc(c34)C[C@H]21.CS(=O)(=O)O [DIHYDROERGOTAMINE MESYLATE]
Value Unit: %
Measured Number: 3
--
Compound: Cl.O=S(=O)(c1cccc2c(I)cccc12)N1CCCNCC1
Value Unit: %
Measured Number: 0
--
Compound: Cc1[nH]nc2ccc(-c3cncc(OCC(N)Cc4c[nH]c5ccccc45)c3)cc12 (stereo unspecified)
Value Unit: %
Measured Number: 0
--
Compound: O=C(Nc1cc(C(F)(F)F)ccc1N1CCCCC1)c1ccncc1
Value Unit: %
Measured Number: 0
--
Compound: Cc1cc(C)c(NC(=O)C2CC3CCC2C3)c(C)c1 (stereo unspecified)
Value Unit: %
Measured Number: 0
--
Compound: CC(C)(O)c1cnc(N2C[C@@]3(CCC[C@](C)(Cn4cnc5ccc(C#N)cc54)C3)OC2=O)cn1
Value Unit: %
Measured Number: 0
--
Compound: Cn1ncnc1COc1nn2c(-c3cc(F)ccc3F)nnc2cc1C(C)(C)C
Value Unit: %
Measured Number: 0
--
Compound: Cc1cc(C)cc(C(=O)NOCCCCCC(=O)NO)c1
Value Unit: %
Measured Number: 0
--
Compound: Nc1nccc(-c2ccn3c(N)nccc23)n1
Value Unit: %
Measured Number: 0
--
Compound: COc1cc(/C=C(\C#N)C(=O)Nc2nnc(C(F)(F)F)s2)ccc1OCc1ccc(C(F)(F)F)cc1C(F)(F)F
Value Unit: %
Measured Number: 0
--
Compound: CN1CCN(c2cc(-c3ccccc3)nc(N)n2)CC1
Value Unit: %
Measured Number: 3
--
Compound: CN(C)Cc1cccc(NC(=C2C(=O)Nc3cc(C(=O)N(C)C)ccc32)c2ccccc2)c1
Value Unit: %
Measured Number: 0
--
Compound: C[C@H](C[C@H](N)C(=O)O)C(=O)O [2S,4R-4-METHYLGLUTAMATE]
Value Unit: %
Measured Number: 0
--
Compound: Cc1c(CC(=O)O)c2cccnc2n1Cc1ccc(S(C)(=O)=O)cc1C(F)(F)F
Value Unit: %
Measured Number: 2
--
Compound: Cc1cc(Nc2ncc(Cl)c(Nc3ccccc3S(=O)(=O)C(C)C)n2)c(OC(C)C)cc1C1CCNCC1
Value Unit: %
Measured Number: 0
--
Compound: CCOC(=O)c1cnn(-c2ccc(NC(=O)C(Cl)=C(Cl)Cl)cc2)c1C(F)(F)F
Value Unit: %
Measured Number: 0
